B1: tRNA (parent)
chain: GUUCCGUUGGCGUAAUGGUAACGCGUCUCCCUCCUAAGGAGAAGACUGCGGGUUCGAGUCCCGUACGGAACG

Variants of: B1
Test: yeast fitness relative to wild type (ratio to wild type); higher = fitter; tRNA-Arg(CCU), competitive growth, 37 C, YPD
This sample holds only a part of the variants without activity.
Class field: derived from yeast fitness; ranges bottom end = under 0.6, midrange = from 0.6 up to 0.8, top end = 0.8 and over

Bin? A20G A36U G68C bottom end
